Just for reference, patent US10144715B2 is where these values come from.

Below, each entry is listed with its recorded pEC50.
# Target under test: Gal4 DNA binding domain fused to the LBD of LXRα in HEK293 cells (Homo sapiens (Human))
# Sequence (Q13133 209-447): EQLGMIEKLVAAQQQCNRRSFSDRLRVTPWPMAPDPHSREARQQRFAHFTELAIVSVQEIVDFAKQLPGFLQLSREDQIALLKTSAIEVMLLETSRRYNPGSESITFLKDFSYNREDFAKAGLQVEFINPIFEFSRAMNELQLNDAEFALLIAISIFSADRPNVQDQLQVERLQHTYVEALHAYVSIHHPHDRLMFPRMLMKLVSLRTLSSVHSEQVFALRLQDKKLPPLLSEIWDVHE
# Assay method text: LXR luciferase transcriptional reporter gene assay, agonist mode, LXRα
# Format: cell-based
# Condition set: read-out: Cell LXRα EC50
pEC50: −log10 of the molar value.
Assay metric: pEC50

Compound: CS(=O)(=O)c1cc(N2CCN(C[C@H]3CC[C@@H](C(F)(F)F)CC3)[C@@H](c3ccccc3)C2)ccc1C(N)=O (single isomer, unassigned) [17-39]
Assay metric: pEC50
Qual: =
Recorded result: 5.78
--
Compound: CS(=O)(=O)c1cccc(N2CCN(C[C@H]3CC[C@H](C(F)F)CC3)[C@H](c3ccccc3)C2)c1 (single isomer, unassigned) [48-18]
Assay metric: pEC50
Qual: =
Recorded result: 4.73
--
Compound: CS(=O)(=O)c1cccc(N2CCN(CC3CCOCC3)[C@@H](c3ccccc3)C2)c1 [51-5]
Assay metric: pEC50
Qual: <
Recorded result: 4.70
--
Compound: CS(=O)(=O)c1cccc(N2CCN(C[C@@H]3C[C@H]4CC[C@@H](C3)N4CC(F)(F)F)[C@H](c3ccccc3)C2)c1 [48-75]
Assay metric: pEC50
Qual: <
Recorded result: 4.70
--
Compound: CS(=O)(=O)c1cccc(N2CCN(Cc3ccc(C(F)(F)F)nc3)[C@@H](c3ccccc3Cl)C2)c1 (single isomer, unassigned) [46-57]
Assay metric: pEC50
Qual: =
Recorded result: 5.91
--
Compound: CC(C)(C)OC(=O)N1CCN(c2cccc(S(C)(=O)=O)c2)C[C@H]1C(C)(C)O [6-1]
Assay metric: pEC50
Qual: <
Recorded result: 4.70
--
Compound: CS(=O)(=O)c1cccc(N2CCN(C[C@H]3CC[C@@](C)(O)CC3)[C@H](c3ccccc3)C2)c1 (single isomer, unassigned) [48-6]
Assay metric: pEC50
Qual: <
Recorded result: 4.70
--
Compound: CC(C)[C@@H]1CN(c2ccc(F)c(S(C)(=O)=O)c2)CCN1c1nccc(C(N)=O)n1 [4-5]
Assay metric: pEC50
Qual: =
Recorded result: 4.82
--
Compound: CC(C)[C@H]1CC[C@H](CN2CCN(c3ccc(CO)c(S(C)(=O)=O)c3)C[C@H]2c2ccccc2)CC1 (single isomer, unassigned) [48-78]
Assay metric: pEC50
Qual: =
Recorded result: 4.96
--
Compound: CC(C)[C@H]1CN(c2cccc(S(C)(=O)=O)c2)CCN1C[C@H]1CC[C@H](C(F)(F)F)CC1 (single isomer, unassigned) [48-12]
Assay metric: pEC50
Qual: =
Recorded result: 6.44
--
Compound: CC(C)[C@H]1CN(c2ccc(C#N)c(S(C)(=O)=O)c2)CCN1C[C@H]1CC[C@@H](C(F)(F)F)CC1 [Cpd No 50-1]
Assay metric: pEC50
Qual: =
Recorded result: 6.74
--
Compound: Cc1cccc(C2CN(c3cccc(S(C)(=O)=O)c3)CCN2Cc2ccc(C(F)(F)F)nc2)c1 (centres unmarked) [46-62]
Assay metric: pEC50
Qual: <
Recorded result: 4.70
--
Compound: CS(=O)(=O)c1cccc(N2CCN(Cc3ccc(C(F)(F)F)c(Cl)c3)[C@@H](Cc3ccccc3)C2)c1 [Cpd No 45-1]
Assay metric: pEC50
Qual: =
Recorded result: 5.44
--
Compound: C[C@H](c1ccc(C(F)(F)F)cc1)N1CCN(c2cccc(S(C)(=O)=O)c2)C[C@@H]1c1ccccc1 (single isomer, unassigned) [46-18]
Assay metric: pEC50
Qual: =
Recorded result: 5.34
